- system: T1, MET928 (cMET protein derived from construct 25-928) (human, UniProt P08581 25-928)
- T1 construct: MET ectodomain, residues 1-24 are the leader; produced in Lec 8 cells; background text says the ectodomain is furin-cleaved into alpha (25-307) and beta chains; biotinylated form used in selections; also called MET928 extracellular domain; Met extracellular domain
- T1 sequence (P08581 25-928): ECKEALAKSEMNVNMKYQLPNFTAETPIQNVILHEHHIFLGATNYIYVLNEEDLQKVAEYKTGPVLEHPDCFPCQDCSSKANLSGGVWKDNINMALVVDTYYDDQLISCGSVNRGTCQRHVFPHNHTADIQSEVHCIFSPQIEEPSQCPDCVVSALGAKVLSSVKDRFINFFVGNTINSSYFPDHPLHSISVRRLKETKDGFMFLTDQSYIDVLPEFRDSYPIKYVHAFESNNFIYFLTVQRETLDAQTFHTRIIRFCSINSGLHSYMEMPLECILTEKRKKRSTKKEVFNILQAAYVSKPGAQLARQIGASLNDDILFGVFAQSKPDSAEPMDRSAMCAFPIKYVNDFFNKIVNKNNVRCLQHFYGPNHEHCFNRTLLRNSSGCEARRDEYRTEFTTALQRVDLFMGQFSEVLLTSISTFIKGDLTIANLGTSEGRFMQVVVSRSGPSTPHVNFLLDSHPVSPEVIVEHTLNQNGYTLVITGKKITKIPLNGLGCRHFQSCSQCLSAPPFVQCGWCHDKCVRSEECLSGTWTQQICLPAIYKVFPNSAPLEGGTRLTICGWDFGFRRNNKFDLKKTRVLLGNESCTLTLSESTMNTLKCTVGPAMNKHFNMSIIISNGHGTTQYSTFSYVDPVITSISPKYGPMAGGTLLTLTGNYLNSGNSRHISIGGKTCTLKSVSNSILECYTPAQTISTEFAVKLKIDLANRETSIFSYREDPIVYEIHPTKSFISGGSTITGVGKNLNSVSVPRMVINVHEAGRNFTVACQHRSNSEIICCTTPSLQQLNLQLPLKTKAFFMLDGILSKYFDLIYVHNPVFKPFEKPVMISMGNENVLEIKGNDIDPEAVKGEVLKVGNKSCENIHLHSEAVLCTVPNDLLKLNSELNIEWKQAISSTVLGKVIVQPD
- protocol_summary: Biacore SPR, MET-928 on chip, scFv format
measurement_kind: kon (M⁻¹ s⁻¹)
Hi! Could you send only the number? It should be in M⁻¹ s⁻¹, unit omitted.

Quick note, kon for 7A2 scFv (expressed in E. coli, 6xHis/tri-Flag tags) (scFv, also called 084-G02; antibody 7A2; not shown: 6xHis/tri-FLAG tags of pSANG10-3F) scFv: QMQLVQSGAEVKKPGAPVKVSCKVSGYTFTDYYMHWVQQAPGKGLEWMGLVDPEDGETIYAEKFQGRVTITADTSTDTAYMELSSLRSEDTAVYYCATDATTPYYGMDVWGQGTLVTVSSLEGGGGSGGGGSGGGASDIQMTQSPSSLSASVGDRVTITCQASQDISNYLNWYQQKPGRAPKVLIYDASNLETGVPSRFSGSGSGTEFTLTISNLRPDDFATYYCQQGDSFPLTFGGGTKVEIK landed at 5.25e+07
